Target: HDAC2 (Homo sapiens)
Sequence (Q92769 whole entry, canonical isoform): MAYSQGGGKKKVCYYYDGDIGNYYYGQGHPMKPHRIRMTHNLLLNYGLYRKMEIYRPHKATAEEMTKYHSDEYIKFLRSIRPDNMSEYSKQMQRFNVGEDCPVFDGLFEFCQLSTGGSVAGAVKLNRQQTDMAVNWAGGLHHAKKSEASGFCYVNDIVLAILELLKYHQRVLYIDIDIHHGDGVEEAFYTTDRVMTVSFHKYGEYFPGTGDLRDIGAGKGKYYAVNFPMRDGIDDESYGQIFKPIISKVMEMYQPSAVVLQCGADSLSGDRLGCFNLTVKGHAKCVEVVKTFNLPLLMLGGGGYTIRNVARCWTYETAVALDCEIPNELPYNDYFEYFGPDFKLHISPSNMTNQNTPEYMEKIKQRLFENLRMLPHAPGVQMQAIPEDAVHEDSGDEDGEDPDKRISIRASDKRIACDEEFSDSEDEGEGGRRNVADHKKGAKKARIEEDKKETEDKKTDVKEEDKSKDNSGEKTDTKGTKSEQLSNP
Experiment: Biochemical activity of isoform-selective HDAC inhibitors, HDAC2
Conditions: biochemical assay

# smiles data, IC50 (nM)
records = [
    ("Nc1cc(F)ccc1NC(=O)c1cnc2c(C3CC3)c(N3CCNCC3)ccc2c1", 619),
]

* * *

Target: HDAC1 (Homo sapiens, UniProt Q13547)
Sequence (Q13547 whole entry, canonical isoform): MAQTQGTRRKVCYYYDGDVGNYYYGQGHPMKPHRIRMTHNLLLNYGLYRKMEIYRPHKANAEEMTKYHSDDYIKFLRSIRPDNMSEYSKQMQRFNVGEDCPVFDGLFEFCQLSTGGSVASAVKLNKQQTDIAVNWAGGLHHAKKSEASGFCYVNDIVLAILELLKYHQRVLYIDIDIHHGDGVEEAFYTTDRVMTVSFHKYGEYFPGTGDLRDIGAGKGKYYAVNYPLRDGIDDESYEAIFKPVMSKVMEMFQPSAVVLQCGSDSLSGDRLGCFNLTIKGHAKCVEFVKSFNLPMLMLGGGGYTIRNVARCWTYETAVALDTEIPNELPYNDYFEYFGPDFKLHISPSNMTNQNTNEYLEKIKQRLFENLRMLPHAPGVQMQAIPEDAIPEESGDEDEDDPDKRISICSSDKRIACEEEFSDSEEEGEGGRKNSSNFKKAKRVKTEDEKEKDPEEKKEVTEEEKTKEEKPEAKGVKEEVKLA
Assay: Biochemical activity of isoform-selective HDAC inhibitors, HDAC1
Conditions: biochemical assay
pIC50: −log10 of the molar value.

# molecule, pIC50
measured = [
    ("Nc1cc(F)ccc1NC(=O)c1cnc2c(C3CC3)c(N3CCNCC3)ccc2c1 [Compound C]", 5.70),
]
